Target: T1, human GITR-Fc (Enzo Life Sciences, ALX-522-061-C050) (human, UniProt Q9Y5U5 26-162)
T1 construct: Bought protein; not shown: Fc part of the bought fusion protein; not described
T1 sequence: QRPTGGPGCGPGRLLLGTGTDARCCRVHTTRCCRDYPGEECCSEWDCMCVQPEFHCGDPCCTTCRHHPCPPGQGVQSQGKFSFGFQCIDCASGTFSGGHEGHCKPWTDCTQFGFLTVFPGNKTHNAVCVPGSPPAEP
Test: ProteOn XPR36; human GITR-Fc amine-coupled on GLC chip, Nanobody injected at 6 concentrations
Protocol: Affinity was determined on the Proteon XPR36. Briefly, after human GITR-Fc (Enzo Life Sciences, ALX-522-061-C050) was immobilized on a GLC chip via amine coupling, a range of 6 concentrations of different monovalent Nanobodies (representing each family) were injected. The Ko values were determined by using the calculated association rate and dissociation rate constants (Table 1) (ProteOn Manager 3.1.0, Version 3.1.0.6 (2011)).
Result Type: Kd (nM)
Form entry: value (nM) — number only.

{"columns": ["Binder", "Kd, nM"],
 "data": [
  ["A0231051E01 (VHH, Monovalent Nanobody expressed in E. coli with a triple Flag, HIS6 tag; also called A0231PMP051E01; PA0231PMP051E01.1; not shown: C-terminal triple FLAG and HIS6 tag) VHH: EVQLVESGGGLVQAGGSLRLSCAASGSIFSFIVMGWYRQAPGEQRALVATVTSGGDTFYVDSVKDRFTISRDNAKNTVYLQMNSLKPEDTAVYFCYFTKVSPYKETTWGQGTLVTVSS", 78],
  ["A0231052E08 (VHH, Monovalent Nanobody expressed in E. coli with a triple Flag, HIS6 tag; also called A0231PMP052E08; PA0231PMP052E08.1; not shown: C-terminal triple FLAG and HIS6 tag) VHH: EVQLVESGGGLVQAGGSLRLSCTGSRSIFSTYAMAWHRQAPGKQRELVGFIYWGGTTTYSDSVKGRFTISRDNAKNTMYLQMNSLKPEDAGVYYCNIYGSYALPWGQGTLVTVSS", 120],
  ["A0231033B02 (VHH, Monovalent Nanobody expressed in E. coli with a triple Flag, HIS6 tag; also called A0231PMP033B02; PA0231PMP033B02.1; not shown: C-terminal triple FLAG and HIS6 tag) VHH: EVQLVESGGGLVQPGGSLRLSCAASGTIFSISTMGWYRQAPGKQREVVAVTSGFSTNYSSAVKGRFTLSRDPAKNTVFLQMNSLQPEDTATYYCNAYLSLAWRDPDRDYWGQGTQVTVSS", 16]
]}

Let us examine a further case.
Give its Kd value. Item: A0231003D11 (VHH, Monovalent Nanobody expressed in E. coli with a triple Flag, HIS6 tag; also called A0231PMP003D11; PA0231PMP003D11.1; not shown: C-terminal triple FLAG and HIS6 tag) VHH: EVQLVESGGGLVQAGESLRLSCAASGSIFSIDAMGWYRQAPGKQRELVAEISDHTTYGDSVKGRFTISRGNAENTVALQMNSLKPEDTGVYYCNVHHQRGWGTSITVTWGQGTQVTVSS
4.6

All figures here come from patent US20220411521A1.
